Test system: Vero E6 infected with SARS-CoV-2
protocol_details: SARS-CoV-2 infection rate relative to infected DMSO; higher = more infection, active = 60 or less
measurement_parameters: 24 h
Item-by-item account of SARS-CoV-2 infection rate
The reply should contain only the number, in %.

Recorded SARS-CoV-2 infection rate, per entry:
O=C(O)[C@H](Cc1ccccc1)NCc1ccc(Cl)cc1 (10 µM)	102
O=C(O)[C@]1(Cc2cccc(Nc3nccs3)n2)CC[C@@H](Oc2cccc(Cl)c2F)CC1 (0.833333 µM)	106

Query COc1ccc(C(=O)N2CCCc3cc(C4=NNC(=O)SC4C)ccc32)cc1OC (stereo unspecified) (0.833333 µM) on Vero E6 infected with SARS-CoV-2; SARS-CoV-2 infection rate returned: 109

Query CC(N)Cc1c[nH]c2ccc(OCc3cccs3)cc12 (stereo unspecified) (10 µM) on Vero E6 infected with SARS-CoV-2; SARS-CoV-2 infection rate returned: 90

Query Cc1[nH]c2ccc(F)cc2c1-c1nc2c3cccnc3c3ncccc3c2[nH]1 (10 µM) on Vero E6 infected with SARS-CoV-2; SARS-CoV-2 infection rate returned: 102

Query O=C(NC1(c2ccccc2)CC1)c1c(CN2CCC(N3CCCCC3)CC2)c(-c2cccc(C(F)(F)F)c2)nc2cc(Br)ccc12 (0.833333 µM) on Vero E6 infected with SARS-CoV-2; SARS-CoV-2 infection rate returned: 112

* * *

System: Vero E6 infected with SARS-CoV-2
protocol_details: inhibition of SARS-CoV-2 cytopathic effect; higher = more antiviral protection, active = above 15
measurement_parameters: 100 nM; 48 h
Item-by-item account of inhibition of SARS-CoV-2 cytopathic effect
The reply should contain only the number, in %.

Recorded inhibition of SARS-CoV-2 cytopathic effect, per entry:
C1COC(NC(C2CC2)C2CC2)=N1 [rilmenidine]	-2.62
COc1cc2nc(N3CCCN(C)CC3)nc(NC3CCN(Cc4ccccc4)CC3)c2cc1OC	-2.3
Cc1cccc(C)c1NC(=O)C[N+](C)(C)C	0.02
CC(=O)N[C@@H](CS)C(=O)O [acetylcysteine]	3.98
CCCCCCCCCCCCCCCc1cccc(OCC(=O)NCCO)c1	-0.69

The compound listed as O=S(=O)(c1cccc2cnccc12)N1CCCNCC1 [fasudil] shows inhibition of SARS-CoV-2 cytopathic effect equal to -2.08

The compound listed as CNS(=O)(=O)CCc1ccc2[nH]cc(C3CCN(C)CC3)c2c1 [naratriptan] shows inhibition of SARS-CoV-2 cytopathic effect equal to 2.08

The compound listed as C=C1CC[C@@]2(O)[C@H]3Cc4ccc(O)c5c4[C@@]2(CCN3CC2CC2)[C@H]1O5 [nalmefene] shows inhibition of SARS-CoV-2 cytopathic effect equal to 2.15

The compound listed as CC(C)(C#N)c1cc(Cn2cncn2)cc(C(C)(C)C#N)c1 [anastrozole] shows inhibition of SARS-CoV-2 cytopathic effect equal to -0.32

The compound listed as O=C(N[C@H]1CN2CCC1CC2)c1cc2cccc(Cl)c2s1 shows inhibition of SARS-CoV-2 cytopathic effect equal to 2.35

The compound listed as O=c1c(O)c(-c2cc(O)c(O)c(O)c2)oc2cc(O)cc(O)c12 [myricetin] shows inhibition of SARS-CoV-2 cytopathic effect equal to 3.15

The compound listed as O=C(NCCCCN1CCN(c2cccc(Cl)c2Cl)CC1)c1ccc2c(c1)Cc1ccccc1-2 shows inhibition of SARS-CoV-2 cytopathic effect equal to -2.31

The compound listed as O=C(/C=C/c1ccc(O)c(O)c1)OCCc1ccccc1 [caffeic-acid-phenethyl-ester] shows inhibition of SARS-CoV-2 cytopathic effect equal to -2.14

The compound listed as OB1OCc2cc(Cl)ccc21 shows inhibition of SARS-CoV-2 cytopathic effect equal to 2.68

The compound listed as C=C1c2cccc(O)c2C(=O)C2=C(O)[C@]3(O)C(=O)C(C(N)=O)=C(O)[C@@H](N(C)C)[C@@H]3[C@@H](O)[C@H]12 [methacycline] shows inhibition of SARS-CoV-2 cytopathic effect equal to 1.49

The compound listed as CS(=O)(=O)Nc1ccc2oc3c(OC(F)F)ccc(C(=O)Nc4c(Cl)cncc4Cl)c3c2c1 [oglemilast] shows inhibition of SARS-CoV-2 cytopathic effect equal to 1.63

* * *

Tested on: Vero E6 infected with SARS-CoV-2
protocol_details: morphology score (similarity to uninfected cells); higher = more like uninfected cells
measurement_parameters: 24 h
Would you please tag the item YES when its morphology score is -0.04 or above, and NO when it is below?

COCCNC(=O)COc1ccc(OCCNC[C@H](O)COc2ccccc2)cc1 (10 µM)	YES
Cc1ccc2c(c1)[C@H]1CN(C)CC[C@H]1N2 [stobadine] (10 µM)	YES
C[C@]12CC[C@@H]3c4ccc(O)cc4CC[C@H]3[C@@H]1CC[C@@H]2O [estradiol] (10 µM)	NO
Nc1nc(Nc2ccccc2)nc2c1ncn2[C@@H]1O[C@H](CO)[C@@H](O)[C@H]1O (10 µM)	YES
Cc1ccc2c(=O)c3cccc(CC(=O)O)c3oc2c1C (10 µM)	NO

Entry COc1c2ccoc2cc2oc(=O)ccc12 [bergapten] (10 µM) : is its morphology score no less than -0.04? YES

Entry CC(=O)N[C@@H](CS)C(=O)O [acetylcysteine] (10 µM) : is its morphology score no less than -0.04? YES

Entry CC(C(=O)O)c1ccc2c(c1)[nH]c1ccc(Cl)cc12 (centres undefined) [carprofen] (10 µM) : is its morphology score no less than -0.04? YES

Entry COCCCOc1cc(C[C@@H](C[C@H](N)[C@@H](O)C[C@H](C(=O)NCC(C)(C)C(N)=O)C(C)C)C(C)C)ccc1OC [aliskiren-hemifumarate] (10 µM) : is its morphology score no less than -0.04? YES

* * *

Item-by-item account of SARS-CoV-2 infection rate
System: Vero E6 infected with SARS-CoV-2
protocol_details: SARS-CoV-2 infection rate relative to infected DMSO; higher = more infection, active = 60 or less
measurement_parameters: 24 h
The reply should contain only the number, in %.

Recorded SARS-CoV-2 infection rate, per entry:
CCCc1cc(C)[nH]c(=O)c1CNC(=O)c1cc(-c2ccc(N3CCN(C(C)C)CC3)nc2)cc2c1cnn2C(C)C (10 µM)	110
C[C@@H](O)[C@H](N)C(=O)N1CCC[C@H]1C(=O)N1CCC[C@H]1C(=O)N[C@H](C(N)=O)[C@@H](C)O [rapastinel] (10 µM)	94
CNC(=O)c1c(-c2ccc(F)cc2)oc2cc(N(CCO)S(C)(=O)=O)c(C3CC3)cc12 [nesbuvir] (10 µM)	104
CC[C@H](C)[C@@H]1NC(=O)[C@H](Cc2ccc(O)cc2)NC(=O)[C@@H](N)CSSC[C@@H](C(=O)N2CCC[C@H]2C(=O)N[C@@H](CC(C)C)C(=O)NCC(N)=O)NC(=O)[C@H](CC(N)=O)NC(=O)[C@H](CCC(N)=O)NC1=O [oxytocin] (10 µM)	110

Okay, now this compound:
The compound listed as Cc1cc(OI)c(C(C)C)cc1-c1cc(C(C)C)c(OI)cc1C [thymol-iodide] (10 µM) shows SARS-CoV-2 infection rate equal to 104

* * *

Test system: Vero E6 infected with SARS-CoV-2
protocol_details: inhibition of SARS-CoV-2 cytopathic effect; higher = more antiviral protection, active = above 15
measurement_parameters: 100 nM; 48 h
Item-by-item account of inhibition of SARS-CoV-2 cytopathic effect
The reply should contain only the number, in %.

Recorded inhibition of SARS-CoV-2 cytopathic effect, per entry:
CCCCCCCCCC(=O)O[C@H]1CC[C@H]2[C@@H]3CCC4=CC(=O)CC[C@@H]4[C@H]3CC[C@]12C [Nandrolone decanoate]	-0.72
CCC(C/C=C/c1ccccc1)(c1ccccc1)N(C)CC1CC1 (configuration not stated)	-2.22
COC(=O)[C@@H](N)CCCNC(=N)N[N+](=O)[O-]	-1.83

The molecule listed as CN(C)C(=O)Oc1cc(OC(=O)N(C)C)cc(C(O)CNC(C)(C)C)c1 (configuration not stated) shows inhibition of SARS-CoV-2 cytopathic effect equal to -1.68

The molecule listed as COC(=O)N[C@H](C(=O)N1CC2(CC2)C[C@H]1c1nc(-c2ccc3c(c2)C(F)(F)c2cc(-c4ccc5[nH]c([C@@H]6[C@H]7CC[C@H](C7)N6C(=O)[C@@H](NC(=O)OC)C(C)C)nc5c4)ccc2-3)c[nH]1)C(C)C shows inhibition of SARS-CoV-2 cytopathic effect equal to -1.6

The molecule listed as CCOc1cc(OCC)c(C(=O)CCC(=O)O)cc1OCC [trepibutone] shows inhibition of SARS-CoV-2 cytopathic effect equal to -0.04

The molecule listed as CN(C)CC/C=C1\c2ccccc2CSc2ccccc21 [dosulepin] shows inhibition of SARS-CoV-2 cytopathic effect equal to 5.41
